Cited source: patent US9090584B2

Consider the following pKi values measured on EP2 (Homo sapiens).
Sequence (P43116 whole entry): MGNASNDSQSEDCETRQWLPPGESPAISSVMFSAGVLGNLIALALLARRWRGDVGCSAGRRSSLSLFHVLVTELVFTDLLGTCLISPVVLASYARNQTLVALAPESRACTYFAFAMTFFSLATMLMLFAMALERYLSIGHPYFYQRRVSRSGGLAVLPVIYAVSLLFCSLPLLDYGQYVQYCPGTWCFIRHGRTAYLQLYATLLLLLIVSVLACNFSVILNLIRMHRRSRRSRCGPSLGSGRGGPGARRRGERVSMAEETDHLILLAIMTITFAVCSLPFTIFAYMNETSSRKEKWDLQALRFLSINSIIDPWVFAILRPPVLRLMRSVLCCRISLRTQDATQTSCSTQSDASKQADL
FYI, pKi means -log10 of a concentration in mol per litre.

[
  {
    "chemical.string": "O=C(O)c1ccc(CCCNC(=O)c2cc(-c3cccc(F)c3)ccc2F)s1",
    "target.entity": "EP2 (Homo sapiens)",
    "recorded.measurement": 6.75
  }
]

We now examine a further compound.
[Q] Lab request: please report pKi under test system EP2 (Homo sapiens) for "O=C(O)c1ccc(CCNC(=O)c2cc(-c3cccc(F)c3)ccc2F)s1"
[A] 7.20

###

target: EP4 (Homo sapiens); test: EP4 flipr functional assay
measured.metric: EC50

[
  {
    "chemical.string": "O=C(O)c1ccc(CNC(=O)c2cc(-c3cccc(F)c3)ccc2F)s1",
    "target.entity": "EP4 (Homo sapiens)",
    "EC50": "> 10 µM"
  },
  {
    "chemical.string": "O=C(NCCCc1ccc(C(=O)O)s1)c1cc(F)cc(-c2cccc(F)c2)c1",
    "target.entity": "EP4 (Homo sapiens)",
    "EC50": "> 10 µM"
  },
  {
    "chemical.string": "O=C(O)c1ccc(CCCCNC(=O)c2cc(-c3cccc(F)c3)ccc2F)s1",
    "target.entity": "EP4 (Homo sapiens)",
    "EC50": "> 10 µM"
  }
]

Shifting focus to the compound that follows.
[Q] What does the data say about its EC50? Entry: "O=C(O)c1ccc(CCNC(=O)c2cc(-c3cccc(F)c3)ccc2F)s1"
[A] 5.14 µM

###

biological target: hEP3A (Homo sapiens); assay: Other receptors functional assay, hEP3A; assay type: cell-based
Sequence (P43115 whole entry): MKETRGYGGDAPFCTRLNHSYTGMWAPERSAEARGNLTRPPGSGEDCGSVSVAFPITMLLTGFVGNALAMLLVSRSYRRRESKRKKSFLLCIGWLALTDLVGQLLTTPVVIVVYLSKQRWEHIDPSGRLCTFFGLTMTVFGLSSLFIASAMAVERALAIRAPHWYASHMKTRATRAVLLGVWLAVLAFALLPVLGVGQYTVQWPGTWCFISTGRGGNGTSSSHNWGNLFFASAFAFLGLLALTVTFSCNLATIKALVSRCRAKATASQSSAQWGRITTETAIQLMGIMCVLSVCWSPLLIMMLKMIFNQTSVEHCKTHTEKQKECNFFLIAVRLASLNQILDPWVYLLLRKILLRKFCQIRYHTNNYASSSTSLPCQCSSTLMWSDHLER
Listed below: EC50 values for each entry.
Output spec: scalar in nM, unitless text.

Worked cases, answers included:
[
  {
    "molecule": "O=C(NCCCc1ccc(C(=O)O)s1)c1cc(F)cc(-c2cccc(F)c2)c1 [Compound 7]",
    "measured.metric": "EC50",
    "unit.symbol": "nM",
    "recorded.measurement": 1420
  },
  {
    "molecule": "O=C(O)c1ccc(CCCNC(=O)c2cc(-c3cccc(F)c3)ccc2F)s1 [Compound 3]",
    "measured.metric": "EC50",
    "unit.symbol": "nM",
    "recorded.measurement": 3290
  },
  {
    "molecule": "O=C(NCCc1ccc(C(=O)O)s1)c1cc(F)cc(-c2cccc(F)c2)c1 [Compound 6]",
    "measured.metric": "EC50",
    "unit.symbol": "nM",
    "recorded.measurement": 4810
  }
]

Now look at this one.
[Q] hEP3A (Homo sapiens) / EC50 / O=C(O)c1ccc(CCNC(=O)c2cc(-c3cccc(F)c3)ccc2F)s1 [Compound 1] : value?
[A] 8900

###

Listing of entries alongside the reported pEC50.
biological target: EP2 (Homo sapiens); experiment: EP2 cAMP assay; format: cell-based
The scale used: pEC50 is minus the common logarithm of the concentration in molar units.

[
  {
    "chemical.string": "O=C(NCCc1ccc(C(=O)O)s1)c1cc(F)cc(-c2cccc(F)c2)c1",
    "target.entity": "EP2 (Homo sapiens)",
    "measured.metric": "pEC50",
    "recorded.measurement": 8.40
  },
  {
    "chemical.string": "O=C(O)c1ccc(CCCNC(=O)c2cc(-c3cccc(F)c3)ccc2F)s1",
    "target.entity": "EP2 (Homo sapiens)",
    "measured.metric": "pEC50",
    "recorded.measurement": 8.30
  },
  {
    "chemical.string": "O=C(O)c1ccc(CCNC(=O)c2cc(-c3cccc(F)c3)ccc2F)s1",
    "target.entity": "EP2 (Homo sapiens)",
    "measured.metric": "pEC50",
    "recorded.measurement": 8.70
  },
  {
    "chemical.string": "O=C(NCCCc1ccc(C(=O)O)s1)c1cc(F)cc(-c2cccc(F)c2)c1",
    "target.entity": "EP2 (Homo sapiens)",
    "measured.metric": "pEC50",
    "recorded.measurement": 8.30
  }
]

From here, focus on the item given below.
[Q] Would you mind telling me what pEC50 value was observed for "O=C(NCCc1ccc(C(=O)O)s1)c1cccc(-c2cccc(F)c2)c1" ?
[A] 8.10

###

target: UniProt:P43116; assay: EP2 flipr functional assay; assay type: cell-based
Lab note - cut at 30 nM for EC50: YES if strictly below, NO if not.

Reference set, count: 3
[
  {
    "chemical.string": "O=C(NCCc1ccc(C(=O)O)s1)c1cc(F)cc(-c2cccc(F)c2)c1",
    "class.name": "YES"
  },
  {
    "chemical.string": "O=C(NCCCc1ccc(C(=O)O)s1)c1cc(F)cc(-c2cccc(F)c2)c1",
    "class.name": "NO"
  },
  {
    "chemical.string": "O=C(O)c1ccc(CCNC(=O)c2cc(-c3cccc(F)c3)ccc2F)s1",
    "class.name": "NO"
  }
]

[Q] Please state whether EC50 is below 30 nM for "O=C(O)c1ccc(CNC(=O)c2cc(-c3cccc(F)c3)ccc2F)s1"
[A] NO

[Q] Then "O=C(NCCc1ccc(C(=O)O)s1)c1cccc(-c2cccc(F)c2)c1" ?
[A] YES

[Q] Could you do the same for "O=C(O)c1ccc(CCCNC(=O)c2cc(-c3cccc(F)c3)ccc2F)s1" , please?
[A] NO

[Q] Ok, now "O=C(O)c1ccc(CCCCNC(=O)c2cc(-c3cccc(F)c3)ccc2F)s1"
[A] NO

###

# key: entry, value: pKi
molecular target: EP4 (Homo sapiens, UniProt P35408)
Sequence (P35408 whole entry): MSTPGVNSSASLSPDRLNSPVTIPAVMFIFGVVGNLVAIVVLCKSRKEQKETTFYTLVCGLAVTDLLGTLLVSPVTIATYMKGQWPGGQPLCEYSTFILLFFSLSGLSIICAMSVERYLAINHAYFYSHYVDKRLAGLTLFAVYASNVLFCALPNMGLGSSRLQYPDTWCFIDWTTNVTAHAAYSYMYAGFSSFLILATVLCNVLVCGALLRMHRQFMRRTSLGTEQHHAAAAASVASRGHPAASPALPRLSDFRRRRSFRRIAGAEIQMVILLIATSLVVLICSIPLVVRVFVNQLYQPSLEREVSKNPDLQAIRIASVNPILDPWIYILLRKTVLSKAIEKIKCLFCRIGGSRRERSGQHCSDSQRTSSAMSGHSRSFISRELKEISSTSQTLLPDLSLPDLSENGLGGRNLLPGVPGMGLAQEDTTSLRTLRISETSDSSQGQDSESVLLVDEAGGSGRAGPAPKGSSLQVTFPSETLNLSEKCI
Please keep in mind that pKi is minus log10 of the molar concentration; only the number is needed.

[
  {
    "chemical.string": "O=C(O)c1ccc(CCNC(=O)c2cc(-c3cccc(F)c3)ccc2F)s1",
    "recorded.measurement": 6.19
  },
  {
    "chemical.string": "O=C(O)c1ccc(CCCCNC(=O)c2cc(-c3cccc(F)c3)ccc2F)s1",
    "recorded.measurement": 5.06
  },
  {
    "chemical.string": "O=C(O)c1ccc(CCCNC(=O)c2cc(-c3cccc(F)c3)ccc2F)s1",
    "recorded.measurement": 5.83
  }
]

[Q] Can you share its pKi? I mean this molecule: "O=C(O)c1ccc(CNC(=O)c2cc(-c3cccc(F)c3)ccc2F)s1"
[A] 6.07

[Q] Record: "O=C(NCCCc1ccc(C(=O)O)s1)c1cc(F)cc(-c2cccc(F)c2)c1"
[A] 6.09

###

Entries annotated with measured EC50
Molecular target: EP4 (Homo sapiens)
Test: EP4 flipr functional assay
Procedure: Data from running binding and activity studies on the compounds of the invention were carried out as described in U.S. Pat. No. 7,427,685, the contents of which are incorporated herein by reference.
// units = µM; emit number, no label

[
  {
    "chemical.string": "O=C(NCCc1ccc(C(=O)O)s1)c1cccc(-c2cccc(F)c2)c1",
    "measured.metric": "EC50",
    "unit.symbol": "µM",
    "recorded.measurement": 6.02
  }
]

[Q] What does the data say about its EC50? Entry: "O=C(NCCc1ccc(C(=O)O)s1)c1cc(F)cc(-c2cccc(F)c2)c1"
[A] 4.44
